Molecular target: NLRP3 (Homo sapiens, UniProt Q96P20)
Sequence (Q96P20 whole entry): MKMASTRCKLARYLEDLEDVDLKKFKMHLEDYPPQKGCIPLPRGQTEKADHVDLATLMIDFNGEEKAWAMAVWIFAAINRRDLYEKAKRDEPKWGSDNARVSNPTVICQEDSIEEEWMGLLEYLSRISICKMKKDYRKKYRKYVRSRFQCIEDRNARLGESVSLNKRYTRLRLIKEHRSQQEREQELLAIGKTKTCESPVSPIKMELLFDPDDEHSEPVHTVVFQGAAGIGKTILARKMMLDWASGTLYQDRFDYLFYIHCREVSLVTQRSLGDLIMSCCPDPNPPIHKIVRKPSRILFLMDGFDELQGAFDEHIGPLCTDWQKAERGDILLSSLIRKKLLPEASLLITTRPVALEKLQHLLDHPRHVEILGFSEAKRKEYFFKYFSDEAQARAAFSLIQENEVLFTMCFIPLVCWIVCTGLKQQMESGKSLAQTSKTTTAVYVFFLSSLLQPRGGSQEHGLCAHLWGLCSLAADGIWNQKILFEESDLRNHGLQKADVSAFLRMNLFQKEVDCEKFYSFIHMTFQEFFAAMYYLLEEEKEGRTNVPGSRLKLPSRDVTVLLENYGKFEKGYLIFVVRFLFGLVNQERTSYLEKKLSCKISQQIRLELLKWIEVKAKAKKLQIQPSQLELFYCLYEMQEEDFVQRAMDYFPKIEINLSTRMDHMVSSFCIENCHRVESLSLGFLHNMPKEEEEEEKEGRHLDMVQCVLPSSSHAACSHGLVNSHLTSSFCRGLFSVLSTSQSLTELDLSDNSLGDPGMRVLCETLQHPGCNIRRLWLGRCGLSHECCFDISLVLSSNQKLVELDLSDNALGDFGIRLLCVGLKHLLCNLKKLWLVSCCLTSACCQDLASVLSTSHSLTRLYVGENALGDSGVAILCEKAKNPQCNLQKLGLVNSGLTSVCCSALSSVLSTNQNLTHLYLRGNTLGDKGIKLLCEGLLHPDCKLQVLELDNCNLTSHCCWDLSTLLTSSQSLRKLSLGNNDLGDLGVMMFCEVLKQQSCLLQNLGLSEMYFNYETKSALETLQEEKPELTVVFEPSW
Assay: Human PBMC NLRP3 Assay
Type: cell-based
Settings: human PBMCs primed with LPS 4 h, compound 30 min, ATP 5 mM 1 h; cytokine measurement on mesoscale platform; potency code
Here, each record is paired with measured IC50 data.

The following compounds have reported results that may help.
| compound | IC50 |
| --- | --- |
| Clc1ccc(-c2nnc(NCC3COCCO3)c3ccccc23)cc1 (single isomer, unassigned) | 500 to 1000 nM |
| CN1CCC[C@H]1CNc1nnc(-c2ccc(Cl)cc2O)c2ccncc12 | < 300 nM |
| Brc1ccc(-c2nnc(NCC3CCCO3)c3ccccc23)cc1 (centres unmarked) | < 300 nM |

Value of IC50 reported for the compound `COC(C)(C)CNc1nnc(-c2ccc(Cl)cc2O)c2ccncc12` is < 300 nM

Value of IC50 reported for the compound Cc1cc(Cl)ccc1-c1nnc(NCC2CCCO2)c2ccccc12 (centres unmarked) is 300 to 500 nM

====

Molecular target: NLRP3 (Homo sapiens, UniProt Q96P20)
Test: Human whole blood (hWB) NLRP3 Assay
Type: cell-based
Design: Blood is collected from healthy volunteers in heparin lithium tubes; from tissue; host or cells: pooled heparinised whole blood from healthy human volunteers, LPS-primed, ATP-stimulated
Details: LPS 1 ug/mL 4.5 h, compound 30 min, ATP 5 mM 30 min, IL-1b MSD assay, potency code
measure_name: IC50

The following compounds have reported results that may help.
| compound | tested_target | IC50 |
| --- | --- | --- |
| Clc1ccc(-c2nnc(OC[C@H]3CCCO3)c3ccncc23)cc1 | NLRP3 (Homo sapiens, UniProt Q96P20) | 300 to 500 nM |
| CN(CC1CCCO1)c1nnc(-c2ccc(Cl)cc2)c2ccccc12 (centres unmarked) | NLRP3 (Homo sapiens, UniProt Q96P20) | 300 to 500 nM |
| Clc1ccc(-c2nnc(NCC3COCCO3)c3ccccc23)cc1 (single isomer, unassigned) [Compound 23] | NLRP3 (Homo sapiens, UniProt Q96P20) | > 1000 nM |
| CC1(CNc2nnc(-c3ccc(Cl)cc3)c3ccccc23)CCCO1 (centres unmarked) | NLRP3 (Homo sapiens, UniProt Q96P20) | < 300 nM |

With those in mind, consider the next compound.
Value of IC50 reported for the compound FC(F)(F)c1ccc(-c2nnc(NCC3CCCO3)c3ccccc23)cc1 (centres unmarked) is < 300 nM

====

Target: NLRP3 (Homo sapiens, UniProt Q96P20)
Test: Human whole blood (hWB) NLRP3 Assay
Format: cell-based
Set-up: Blood is collected from healthy volunteers in heparin lithium tubes; from tissue; host or cells: pooled heparinised whole blood from healthy human volunteers, LPS-primed, ATP-stimulated
Settings: LPS 1 ug/mL 4.5 h, compound 30 min, ATP 5 mM 30 min, IL-1b MSD assay, potency code
measure_name: IC50

The following compounds have reported results that may help.
| compound | tested_target | IC50 |
| --- | --- | --- |
| OCCNc1nnc(-c2ccc(Cl)cc2)c2ccccc12 | NLRP3 (Homo sapiens, UniProt Q96P20) | 500 to 1000 nM |
| COCCNc1nnc(-c2ccc(Cl)cc2)c2ccccc12 | NLRP3 (Homo sapiens, UniProt Q96P20) | < 300 nM |
| Clc1ccc(-c2nnc(NC[C@H]3CCCO3)c3cc(Cl)ccc23)cc1 (racemic) | NLRP3 (Homo sapiens, UniProt Q96P20) | < 300 nM |
| Clc1ccc(-c2nnc(NCC3CCCCO3)c3ccccc23)cc1 (stereo not drawn) | NLRP3 (Homo sapiens, UniProt Q96P20) | > 1000 nM |

Result for CC1COC(CNc2nnc(-c3ccc(Cl)cc3)c3ccccc23)C1 (stereo not drawn) , tested on NLRP3 (Homo sapiens, UniProt Q96P20), IC50: 500 to 1000 nM

Result for Cc1cc(Cl)ccc1-c1nnc(NCC2CCCO2)c2ccccc12 (stereo not drawn) , tested on NLRP3 (Homo sapiens, UniProt Q96P20), IC50: 300 to 500 nM

Result for `Clc1ccc(-c2nnc(NCC3CCOCC3)c3ccccc23)cc1` , tested on NLRP3 (Homo sapiens, UniProt Q96P20), IC50: > 1000 nM

Result for `Clc1ccc(-c2nnc(OC[C@H]3CCCO3)c3cnccc23)cc1` , tested on NLRP3 (Homo sapiens, UniProt Q96P20), IC50: 300 to 500 nM

Result for Clc1ccc(-c2nnc(NCC3COCCO3)c3ccccc23)cc1 (single isomer, unassigned) [Compound 24] , tested on NLRP3 (Homo sapiens, UniProt Q96P20), IC50: < 300 nM
